# target: panel of more than 300 wild-type and mutant kinases (313 kinase panel) (Homo sapiens, UniProt Q9UM73, L1196M)
# assay.text: Kinase profiling in a biochemical assay panel (mobility shift assays and ELISA), %-inhibition at 1 μM; selectivity entropy
# protocol.conditions: kinase ALK(L1196M); 1 μM compound
measured.attribute: %-inhibition, ALK(L1196M) (%)
Response body: numeric value in %, unit text excluded.

%-inhibition, ALK(L1196M) reported for this compound COc1cc2nccc(Oc3ccc(NC(=O)C4(C(=O)Nc5ccc(F)cc5)CC4)cc3)c2cc1OC [cabozantinib] : 4.25

Record CS(=O)(=O)CCNCc1ccc(-c2ccc3ncnc(Nc4ccc(OCc5cccc(F)c5)c(Cl)c4)c3c2)o1 [lapatinib] . Reported %-inhibition, ALK(L1196M): -3

Just so you know, measured %-inhibition, ALK(L1196M) for O=S(=O)(c1cccc2cnccc12)N1CCCNCC1 [fasudil] came out at -4

So, CC(=O)Nc1cccc(-n2c(=O)n(C3CC3)c(=O)c3c(Nc4ccc(I)cc4F)n(C)c(=O)c(C)c32)c1 [trametinib] ? Its %-inhibition, ALK(L1196M) was -3.42

Reported %-inhibition, ALK(L1196M) of CO[C@H]1C[C@@H]2CC[C@@H](C)[C@@](O)(O2)C(=O)C(=O)N2CCCC[C@H]2C(=O)O[C@H]([C@H](C)C[C@@H]2CC[C@@H](OC(=O)C(C)(CO)CO)[C@H](OC)C2)CC(=O)[C@H](C)/C=C(\C)[C@@H](O)[C@@H](OC)C(=O)[C@H](C)C[C@H](C)/C=C/C=C/C=C/1C [temsirolimus] : -2.81

Memo: Cc1ccc(Nc2nccc(N(C)c3ccc4c(C)n(C)nc4c3)n2)cc1S(N)(=O)=O [pazopanib] , reported %-inhibition, ALK(L1196M): 25

So, CCCS(=O)(=O)Nc1ccc(F)c(C(=O)c2c[nH]c3ncc(-c4ccc(Cl)cc4)cc23)c1F [vemurafenib] ? Its %-inhibition, ALK(L1196M) was 3

Record summary for CNC(=O)c1cc(Oc2ccc(NC(=O)Nc3ccc(Cl)c(C(F)(F)F)c3)c(F)c2)ccn1 [regorafenib] : reported %-inhibition, ALK(L1196M) = 0.358

Entry CO[C@H]1C[C@@H]2CC[C@@H](C)[C@@](O)(O2)C(=O)C(=O)N2CCCC[C@H]2C(=O)O[C@H]([C@H](C)C[C@@H]2CC[C@@H](OCCO)[C@H](OC)C2)CC(=O)[C@H](C)/C=C(\C)[C@@H](O)[C@@H](OC)C(=O)[C@H](C)C[C@H](C)/C=C/C=C/C=C/1C [everolimus] — recorded %-inhibition, ALK(L1196M) = -3.63

Value of measured %-inhibition, ALK(L1196M) for the entry Cc1cn(-c2cc(NC(=O)c3ccc(C)c(Nc4nccc(-c5cccnc5)n4)c3)cc(C(F)(F)F)c2)cn1 [nilotinib] : -42

The reported numbers originate from paper PMC3961306.
